measurementNotes: gradient 5% acetonitrile 3 min, to 50% in 2 min, to 85% in 15 min, held 3 min, 100 µL/min
conditionsUsed: column: Zorbax Extend-C18 2.1 x 50 mm; eluents: water / acetonitrile, 0.1% formic acid
// label = Satisfied if RP-LC retention time is not less than 700 s, otherwise Not satisfied

Query block: Threshold query (RP-LC retention time >= 700 s) on CC(=O)Nc1ccc(S(=O)(=O)N2CCC(CN3CCC(C)CC3)CC2)cc1
Result block: Not satisfied

Query block: Test whether the compound O=C(Nc1ccc(F)cc1)c1nnc(COCC(=O)N2CCN(c3ccccn3)CC2)s1 records RP-LC retention time of 700 s or higher.
Result block: Not satisfied

Query block: Identify whether the reported RP-LC retention time of the following compound is 700 s or greater: CCn1cc(S(=O)(=O)Nc2cccc(OC)c2)c2cccnc21
Result block: Satisfied

Query block: Hi team, for CCOc1ccccc1C(=O)Nc1cccn2c(C)nnc12 , is the recorded RP-LC retention time at or above 700 s?
Result block: Satisfied

Query block: In plain terms: is recorded RP-LC retention time at least 700 s for CC(C)c1c(C2CCN(C(=O)c3ccoc3)CC2)noc1N ?
Result block: Not satisfied

---

Each entry below carries its reported RP-LC retention time.
measurementNotes: gradient 5% acetonitrile 3 min, to 50% in 2 min, to 85% in 15 min, held 3 min, 100 µL/min
conditionsUsed: column: Zorbax Extend-C18 2.1 x 50 mm; eluents: water / acetonitrile, 0.1% formic acid
// return numeric value only (unit: s, not printed)

Examples from the recorded data:
1. COc1ccc(N2CCN(c3cc(SCC(=O)Nc4cccc(Cl)c4)ncn3)CC2)cc1 1030
2. CCN1C(=O)COc2cc(-c3noc(C(=O)NC4CCCCC4)n3)ccc21 996
3. COc1cc(-c2nnc(COc3ccc(Cl)cc3Cl)o2)cc(OC)c1OC 994

The record that follows has no RP-LC retention time shown yet.
Query block: Reported RP-LC retention time, molecule Fc1ccc(OCc2nnc3sc(-c4ccc(Cl)cc4)nn23)cc1 : ____
Result block: 1030

---

measurementNotes: gradient 5% acetonitrile 3 min, to 50% in 2 min, to 85% in 15 min, held 3 min, 100 µL/min
conditionsUsed: column: Zorbax Extend-C18 2.1 x 50 mm; eluents: water / acetonitrile, 0.1% formic acid
quantityKind: RP-LC retention time (s)
The answer is to be given in s; state only the numeric part.

molecule	observedResult
Cc1cccc(N2CCN(C(=O)c3ccc4c(c3)N(C)C(=O)C3CCCCN43)CC2)c1C (centres undefined)	1170
O=C(Cn1c(=O)c(CCC(=O)NC2CC2)nc2ccccc21)Nc1cccc(Br)c1	781
COc1cccc(-c2cn3ccn(-c4ccc(Br)cc4)c(=O)c3n2)c1	866

Proceed to the following item.
Query block: What does the record list as RP-LC retention time for CNC(=O)c1sc2nc(-c3ccc(C)cc3)c(NCCOC)n2c1C ?
Result block: 712

---

measurementNotes: gradient 5% acetonitrile 3 min, to 50% in 2 min, to 85% in 15 min, held 3 min, 100 µL/min
conditionsUsed: column: Zorbax Extend-C18 2.1 x 50 mm; eluents: water / acetonitrile, 0.1% formic acid
quantityKind: RP-LC retention time (s)
Report as a plain number; the unit s is understood.

compound	RP-LC retention time (s)
O=C(NCc1ccco1)C1CCN(c2nc3ccc(-c4cncnc4)nc3s2)CC1	743

Query block: Reported RP-LC retention time for Cc1ccc(CNC(=O)C(C)Oc2cc(C(F)(F)F)c3c(C)nn(C)c3n2)cc1 (stereo not given) : what is it?
Result block: 1030

Query block: Which measured RP-LC retention time value corresponds to COc1ccc(NC(=O)N2CC(N(C3CCOCC3)S(C)(=O)=O)C2)cc1F ?
Result block: 685

Query block: Could you share which RP-LC retention time value was measured for O=C(NCC(F)(F)F)c1cnccn1 ?
Result block: 597

Query block: Quick one: RP-LC retention time of CCN1C(=O)C2(CCN(S(=O)(=O)c3cc(Cl)ccc3OC)CC2)c2ccccc21 ?
Result block: 1000

Query block: Endpoint output: RP-LC retention time of NC(=NCc1ccc(Cl)cc1Cl)NC(=O)c1nc(Cl)c(N)nc1N . Value?
Result block: 770

Query block: RP-LC retention time for O=[N+]([O-])c1c(NCCCO)cc(N2CCN(c3ccccn3)CC2)c2nonc12 ?
Result block: 584

Query block: Return reported RP-LC retention time; argument: N#CCN(c1ccc(F)cc1)S(=O)(=O)c1ccc2nncn2c1
Result block: 669

Query block: Could you tell me which RP-LC retention time is on file for Cc1nn(C(C)C(=O)NC2CCCCC2)c(=O)c2nn(-c3ccccc3)c(C)c12 (stereo not given) ?
Result block: 879

Query block: Item Cc1ccccc1CN1C[C@@H]2C(=O)N(C)C(=O)[C@@H]2C1 has what recorded RP-LC retention time?
Result block: 585

Query block: Name the recorded RP-LC retention time for O=C(CN1C(=O)C(C(=O)N2CCCCC2)Sc2ccccc21)N1CCN(c2ccccc2)CC1 (stereo not given) .
Result block: 907

Query block: For the compound shown here, CS(=O)(=O)N1CCC(C(=O)Nc2ccc(F)c(Cl)c2)Oc2ccccc21 (stereo not given) , give the reported RP-LC retention time.
Result block: 986

---

# reported RP-LC retention time; entries follow
measurementNotes: gradient 5% acetonitrile 3 min, to 50% in 2 min, to 85% in 15 min, held 3 min, 100 µL/min
conditionsUsed: column: Zorbax Extend-C18 2.1 x 50 mm; eluents: water / acetonitrile, 0.1% formic acid
Just the number please, in s, no unit attached.

1) COC(=O)CNC(=O)c1sc2ncccc2c1-n1cccc1 736
2) CCn1cc(S(=O)(=O)N2CCOc3ccc(NC(=O)C4CC4)cc3C2)cn1 734
3) Cc1cc(C)c(C)c(S(=O)(=O)Nc2ccc3c(c2)OCO3)c1C 915

Query block: // RP-LC retention time lookup, key: Cc1cc(NC(=O)c2ncccn2)no1
Result block: 577

---

measurementNotes: gradient 5% acetonitrile 3 min, to 50% in 2 min, to 85% in 15 min, held 3 min, 100 µL/min
conditionsUsed: column: Zorbax Extend-C18 2.1 x 50 mm; eluents: water / acetonitrile, 0.1% formic acid
quantityKind: RP-LC retention time (s)
Give just the number in s; leave the unit off.

Worked examples, 5 compounds total:
compound	RP-LC retention time (s)
COc1ccc(NC(=O)C2CCN(C(=O)c3ncn4c3COC(c3ccc(OC)cc3)C4)CC2)cc1 (stereo unspecified)	760
CSc1nnc(NC(=O)CN(C)S(C)(=O)=O)s1	603
Cc1nc(-c2ccccc2)nc2c1CCC(=O)N2C(C)C	1060
Cc1ccc(C(=O)NC2CCN(c3ncnc4c3CCC4)C2)s1 (stereo unspecified)	606
CSc1cccc(NC(=O)N2CCC(CC(=O)NCc3cccc(F)c3)CC2)c1	843

Moving on to the next compound.
Query block: If you can, please state the reported RP-LC retention time value of Cc1ccc(-c2csc(-c3cc4c([nH]c3=O)CC(C)(C)CC4=O)n2)cc1 .
Result block: 994

---

measurementNotes: gradient 5% acetonitrile 3 min, to 50% in 2 min, to 85% in 15 min, held 3 min, 100 µL/min
conditionsUsed: column: Zorbax Extend-C18 2.1 x 50 mm; eluents: water / acetonitrile, 0.1% formic acid
Mark each entry label 1 if its RP-LC retention time sits below 800 s, and label 0 for all others.

compound	category
Cc1ccccc1CNC(=O)C1=C2CCCN2c2ccccc2S1(=O)=O	label 0
O=C(C1CCN(c2cnc(N3CCCC3)nc2)CC1)N1CCCCC1	label 1
CN(C)CCNC(=O)COc1ccccc1-c1nnc(-c2ccccc2)o1	label 1

Query block: Find out if reported RP-LC retention time for CCOC(=O)C1CCN(S(=O)(=O)c2cccc(-c3cn4ccccc4n3)c2)CC1 is less than 800 s
Result block: label 1

Query block: Problem: For the compound O=C1CC(c2nc(-c3cccc(C(F)(F)F)c3)no2)CN1c1ccc2c(c1)OCO2 (stereo not drawn) , is RP-LC retention time under 800 s?
Result block: label 0

Query block: Is RP-LC retention time of Cc1nc(OCC(=O)N2CCCCCC2)c2c(-c3ccc(F)cc3)noc2n1 strictly below 800 s?
Result block: label 0

Query block: Answer whether the compound CC(C)OCCCNC(=O)CN1c2ccc(F)cc2-c2ccccc2S1(=O)=O has RP-LC retention time strictly less than 800 s
Result block: label 0

Query block: Determine whether this compound shows RP-LC retention time lower than 800 s (ties excluded): COCCNS(=O)(=O)c1ccc(Cl)c(-c2nnc(-c3ccccc3)o2)c1
Result block: label 0

Query block: Does COc1ccccc1-c1noc(-c2nn(-c3ccc(Cl)cc3)ccc2=O)n1 have RP-LC retention time strictly under 800 s?
Result block: label 0

Query block: Quick check: RP-LC retention time of CC(=O)N1CCCC1CCc1ncc(C)n1C(C)C (stereo not drawn) under 800 s?
Result block: label 1

Query block: Just wondering, is RP-LC retention time of COCCCNC(=O)N1CC(n2cc(COc3ccc(F)cc3)nn2)C1 below 800 s?
Result block: label 1

Query block: Does this compound meet the criterion RP-LC retention time < 800 s? O=C(Cn1c(=O)c2cccn2c2ccc(F)cc21)NCc1ccco1
Result block: label 1

Query block: Lab log: compare recorded RP-LC retention time with 800 s; is it strictly lower for CCOc1ccc(-c2csc(Nc3ccccn3)n2)cc1 ?
Result block: label 0
